assay: A549 lung cancer cell viability effects, profiling panel, resazurin fluorescence, 24 h, PK04 Diversity Set (AID 1171); conditions: higher = more signal, called active from +8 up or from −8 down; also: test concentration not given here
measurement-name: z-score
Quick one: just the number, no unit, thanks!

Enquiry: # z-score lookup, item COCCNC(=O)OCC1CCCC2(CC(OC(=O)NCCc3ccc(F)cc3)CC(CCC(=O)N[C@@H](C)C(=O)OC)O2)O1 (some centres undefined)
Return: 1.06

Enquiry: Report z-score for COc1cccc([C@H]2Oc3ccc(OC)cc3C(=NO[C@H](C)c3cn([C@@H]4COC[C@H]4O)nn3)[C@@H]2O)c1 please.
Return: -0.481

Enquiry: Entry under review: C=CCC(OC(C)=O)[C@@H]1[C@@H](N(Cc2cc3ccccc3o2)C(=O)Cc2ccc(F)cc2)c2cc(OCCCO)ccc2N1C(=O)Cc1ccc(OC)cc1 (some centres undefined) . Reported z-score?
Return: 0.331

Enquiry: Given the entry CC(=O)OC[C@H]1O[C@H](CCON=C(C)CCN2CCc3nc(-c4ccccc4)c(-c4ccccc4)cc3C2)C=C[C@@H]1OC(C)=O , report its measured z-score.
Return: 0.783

----------
assay: modulators of S6 phosphorylation in cells, primary screen, cell-based, A549, cytoblot, luminescence, serum-stimulated (AID 1158); conditions: A549 phospho-S6 cytoblot, 5 h, higher = more signal;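 also: serum-stimulated A549 lung adenocarcinoma cells; signal is phosphorylated S6 detected by cytoblot immunostaining with HRP secondary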
measurement-name: z-score

Completed entries (count: 5):
COCCOC(=O)N1C(=O)[C@@]2(c3cc(C#CC4(O)CCCCCC4)ccc31)[C@H](C(=O)N1CCN(c3ncccn3)CC1)[C@H]1C(=O)O[C@H](c3ccccc3)[C@H](c3ccccc3)N1[C@@H]2c1ccc(OCCO)cc1 ... 0.372
CO[C@@H]1COC(=O)[C@H](C)NC(=O)[C@@H](C)COC(=O)CCC[C@H]1C ... -0.276
CC[C@@H](c1ccccc1)n1c(=O)n2n(c1=O)[C@H]1[C@H](O)[C@@H]3O[C@@H]3C(=NOCC(C)C)[C@H]1CC2 ... 0.123
COc1ccc(O[C@H]2C=C[C@@H](c3ccccc3)O[C@@H]2COC(=O)CCC(C)=NOC(C)CN2CCCCc3nc(C)c(C)cc32)cc1 (stereo partly drawn) ... -0.0603
CCCNC(=O)OC[C@H]1O[C@H](CCON=C2[C@H]3CCn4c(=O)n(-c5ccccc5)c(=O)n4[C@H]3[C@H](O)[C@@H]3O[C@H]23)C=C[C@@H]1Oc1ccc(OC)cc1 ... -0.254

Enquiry: Please give the measured z-score for this molecule: CC(CCN1CCc2nc(-c3ccccc3)c(-c3ccccc3)cc2C1)=NO[C@H](C)c1cn([C@@H]2COC[C@H]2O)nn1
Return: 0.387

Enquiry: Can you share its z-score? I mean this molecule: CCCC[C@@H]1C[C@H]1[C@@H](NS(=O)(=O)c1cccc2cccnc12)c1ccc(-c2ccccc2)cc1
Return: -0.464

Enquiry: Item under review: CC(C)(C)OC(=O)CC[C@]1(C(N)=O)COC(c2ccc(OCCCO)cc2)=N1 . Reported z-score?
Return: -0.777

----------
experiment: Plasmodium falciparum growth inhibition, primary screen, strain 3D7, DAPI fluorescence, 100 nL (AID 1184);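 also: parasites grown inside human red blood cells in medium with human serum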; details: P. falciparum 3D7 growth, 3 d, higher = more signal
measurement-name: z-score
I only need the number, thanks.

Some solved entries appear below for comparison.
C=C(/C(=C/C[C@H](OC(C)=O)c1ccc(OCCO)cc1)c1cnc2ccccc2c1)C(C)C ... -2.99
O=C(NN=C1C[C@@H](O)[C@@H](O)[C@@H]2[C@@H]3C(=O)N(c4cccc(Oc5ccccc5)c4)C(=O)[C@@H]3CC[C@H]12)OCc1ccccc1 ... -1.43
C=CC[C@@H]1C=C[C@H](ON=C[C@@H](OC)[C@H](C)C=CCC(=O)OC)[C@@H](CO)O1 ... 0.167

# next compound below
Enquiry: Which z-score value is on record for CCCNC(=O)[C@@H]1c2ccccc2C(=O)N(c2ccc(C)cn2)[C@H]1c1ccc(CO)cc1 ?
Return: 0.167

----------
assay: RPMI8226 myeloma cell viability, profiling panel, resazurin fluorescence, basal, 24 h, PK04 Diversity Set (AID 1180); details: higher = more signal;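 also: RPMI8826 multiple myeloma cell line at 5000 cells per well; test concentration not given here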
measurement-name: z-score
# answer = number (no unit)

Example results:
CCOC(=O)[C@H](CC(C)C)NC(=O)CCC1CC(OC(=O)NCc2cccc3ccccc23)CC2(CCCC(COC(=O)NCCN3CCOCC3)O2)O1 (some centres undefined) ... 1.19
COC(=O)[C@@]1(Cc2ccc(OC)cc2)[C@H]2c3cc(C(=O)N4CCCC4)n(Cc4cc(F)c(F)c(F)c4)c3C[C@H]2CN1C(=O)c1ccccc1 ... -3.1
C[C@H]1CC[C@@H](C(=O)O)N[C@@H]1c1ccc(C#CCN(C)C)cc1 ... 0.22

Attention now turns to another entry.
Enquiry: Item under review: CCCCCN1CC=CC23O[C@@H]4C=CCOC(=O)[C@@H]4[C@H]2C(=O)N(CCCCCCO)[C@@H]3C1=O (some centres undefined) . Reported z-score?
Return: 0.922

----------
tested on: glycogen synthase kinase-3 (GSK3A per assay name; protocol says GSK3B); test: GSK3 binders on small-molecule microarrays, primary screen, biochemical, small-molecule microarray, 635 nm fluorescence, GSK3A (AID 1103); settings: small-molecule microarray binding, fluorescence 635 nm; higher = more signal; also: the record names both GSK3A and GSK3B
measurement-name: composite z-score
Just the number, please.

C=CCOC(=O)[C@H]1[C@@H]2C(=O)O[C@@H](c3ccccc3)[C@@H](c3ccccc3)N2[C@@H](c2ccc(OCCOC(=O)[C@H]3C[C@H]4C(=O)N5CCC[C@H]5C(=O)N4[C@H]3c3cccc(OCCO)c3)cc2)[C@]12C(=O)Nc1ccc(I)cc12 ... 1.37
COc1ccc([Si](C)(C)[C@H]2[C@H](CCO)O[C@@]3(C(=O)N(Cc4cccc(NC(=O)[C@H](C)O)c4)c4ccccc43)[C@@H]2C)cc1 ... 0.738
O=C1[C@H]2[C@H]3[C@H](O)[C@H](O)CC(=NO[C@@H]4O[C@H](CO)[C@@H](O)[C@H](O)[C@H]4O)[C@H]3CC[C@H]2C(=O)N1Cc1ccc2c(c1)OCO2 ... -0.417
CC(C)[C@H](NC(=O)OC(C)(C)C)[C@@H](O)CC(=O)OC(C)(C)C ... -1.38
COCC1=C2[C@@H](CCc3ccccc3)OB(O)C[C@@H]2n2c(=O)n(-c3ccccc3)c(=O)n2C1 ... -0.114
C[C@@H]1C=CCC(=O)OC[C@H](C)C(=O)N2CCC[C@H]2C(=O)OC1 ... 1.21
CCOC(=O)[C@H](Cc1ccccc1)NC(=O)CCC1CC(OC(=O)NCc2ccc3c(c2)OCO3)CC2(CCCC(COC(=O)NCc3ccccc3)O2)O1 (some centres undefined) ... 0.78
CCCNC(=O)OC[C@H]1O[C@H](CCON=CC[C@@H]2C=C[C@H](OC(C)=O)[C@@H](COC(C)=O)O2)C=C[C@@H]1Oc1ccc(OC)cc1 ... 0.524

Now consider a different compound.
Enquiry: Return reported composite z-score; argument: COc1ccc(O[C@H]2C=C[C@@H](c3ccccc3)O[C@@H]2CON=C[C@@H](C)[C@H](OCc2ccccc2)C(C)C)cc1
Return: -1.04

----------
Known composite z-score of a selection of molecules
experiment: small-molecule binders of probe aNOTCH3, primary screen, biochemical, small-molecule microarray, 635/667 nm fluorescence (AID 1120); conditions: higher = more signal;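 also: probe is a biotin-tagged antibody raised against NOTCH3 rather than NOTCH3 protein; score merges spot fluorescence near 667 nm with spot signal to noise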
Reply with the value as a number alone.

Enquiry: Which composite z-score value belongs to CN1C(=O)[C@@]2(CCC(=O)OC(C)(C)C)N=C(c3ccc(OCCCO)cc3)O[C@H]2c2ccccc21 ?
Return: -0.0694

----------
Quick list: z-score per entry.
assay: yeast growth modulation, basal conditions, primary screen, YJM789 clinical isolate, OD600, 24 h (AID 1089);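 also: growth of clinical yeast isolate S. cerevisiae YJM 789 seeded 1000 cells per well; test concentration not given here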; details: S. cerevisiae YJM789 growth, higher = more signal, called active from +8 up or from −8 down
Lab note: jot the number down without any unit.

C[C@@H](c1ccccc1)N1C(=O)[C@H]2[C@H]3[C@H](O)[C@H](O)CC(=NNC(=O)OCc4ccccc4)[C@H]3CC[C@H]2C1=O ... 0.547
Cc1ccc(S[C@]2(C(=O)O)CC(=O)N(Cc3ccccc3)[C@@H]2c2ccc(CO)cc2I)cc1 ... -0.866
CCN1C(=O)[C@H]2[C@H]3[C@H](O)[C@H](O)CC(=NOCc4ccccc4)[C@H]3CC[C@H]2C1=O ... -0.896

Consider the additional molecule presented here.
Enquiry: I have this molecule here, O=C1c2ccccc2[C@@]2(Cc3ccccc3N(C3CC3)C2=O)[C@H](c2ccc(CO)cc2)N1Cc1ccccc1C(F)(F)F , and I need its recorded z-score.
Return: -0.104

----------
Listing of recorded composite z-score by entry.
experiment: compound binding in COS7 lysate, probe aLAP1, primary screen, cell lysate, small-molecule microarray (AID 1124); conditions: probe aLAP1, fluorescence, higher = more signal;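 also: lysate comes from COS7 cells expressing LAP1 and is applied at 0.3 µg/mL; score merges spot fluorescence near 667 nm with signal-to-noise over triplicate slides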
Could you respond with only the numeric value?

COC(=O)C1=C(C)[C@@H](O)[C@@H](C)[C@H](c2c(OC)c(OC)c(C)c(OC)c2OC)O1 ... -0.064
COCCNC(=O)OCC1CCCC2(CC(OC(=O)NCCc3ccc(F)cc3)CC(CCC(=O)N[C@@H](C)C(=O)OC)O2)O1 (stereo partly drawn) ... -0.0037

Enquiry: Can you share its composite z-score? I mean this molecule: C/C=C\[C@@H](NCc1ccccc1Br)[C@@H](O)Cc1ccccc1
Return: -0.0543

Enquiry: If you can, please state the reported composite z-score value of O=C1[C@H]2[C@H]3[C@H](O)[C@H](O)CC(=NO[C@@H]4O[C@H](CO)[C@@H](O)[C@H](O)[C@H]4O)[C@@H]3CC[C@H]2C(=O)N1c1ccc(F)cc1F .
Return: 0
